These data points were gathered from ChEMBL document CHEMBL2218924.

Quick reference for residual activity among some compounds
# TARGET OR TEST SYSTEM: Insulin-like growth factor 1 receptor (Homo sapiens)
# PARTICULARS: at 1 µM
Answer with a number only, understood to be in %.

Use these answered entries as a reference point.
SMILES | residual activity / %
Cn1cc(/C=C2\C(=O)Nc3ccc(S(N)(=O)=O)cc32)c2ccccc21 | 118
CC(=O)c1ccc(N2CCOCC2)cc1O | 148
CO[C@@H]1[C@H](N(C)C(=O)c2ccccc2)C[C@H]2O[C@]1(C)n1c3ccccc3c3c4c(c5c6ccccc6n2c5c31)C(=O)NC4 | 115

Given the entry "Cc1nc2cc3nc(-c4cccs4)cnc3cc2n1C" , what residual activity was observed with Insulin-like growth factor 1 receptor (Homo sapiens)?
141

Given the entry "O=c1c2ccccc2[nH]c(=S)n1CCN1CCC(=C(c2ccc(F)cc2)c2ccc(F)cc2)CC1" , what residual activity was observed with Insulin-like growth factor 1 receptor (Homo sapiens)?
119

###

Quick reference for residual activity among some molecules
# TARGET OR TEST SYSTEM: Serine/threonine-protein kinase 33 (Homo sapiens) (UniProt Q9BYT3)
# Sequence (Q9BYT3 whole entry, looked up): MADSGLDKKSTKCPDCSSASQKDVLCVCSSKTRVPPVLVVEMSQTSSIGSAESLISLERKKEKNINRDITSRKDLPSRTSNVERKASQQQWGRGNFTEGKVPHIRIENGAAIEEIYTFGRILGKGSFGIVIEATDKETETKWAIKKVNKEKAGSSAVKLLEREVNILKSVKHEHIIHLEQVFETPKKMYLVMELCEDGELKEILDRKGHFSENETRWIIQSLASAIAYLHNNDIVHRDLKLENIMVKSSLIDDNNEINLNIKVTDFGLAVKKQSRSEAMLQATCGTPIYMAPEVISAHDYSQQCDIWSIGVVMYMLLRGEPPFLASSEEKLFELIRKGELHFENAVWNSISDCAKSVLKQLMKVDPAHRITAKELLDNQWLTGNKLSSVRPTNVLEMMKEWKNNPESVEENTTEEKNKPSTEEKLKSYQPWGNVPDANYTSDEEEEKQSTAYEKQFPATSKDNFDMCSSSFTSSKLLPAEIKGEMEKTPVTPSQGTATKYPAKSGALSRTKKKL
# PARTICULARS: at 1 µM
Reply with the number and its unit after it.

State the recorded residual activity for this entry: "Oc1ccc(-c2nc(-c3ccc(F)cc3)c(-c3ccncc3)[nH]2)cc1"
105%

State the recorded residual activity for this entry: "c1ccc2c(-c3ccncc3)c[nH]c2c1"
98%

State the recorded residual activity for this entry: "O=C1NC(=O)c2cc(Nc3ccc(F)cc3)c(Nc3ccc(F)cc3)cc21"
95%

State the recorded residual activity for this entry: "Nc1n[nH]c2nnc(-c3c(-c4ccccc4)nn4ccccc34)cc12"
96%

State the recorded residual activity for this entry: "Cc1cccc(-c2[nH]c(C(C)(C)C)nc2-c2ccc3c(c2)OCO3)n1"
93%

###

# TARGET OR TEST SYSTEM: Protein kinase C eta type (Homo sapiens) (UniProt P24723)
# Sequence (P24723 whole entry): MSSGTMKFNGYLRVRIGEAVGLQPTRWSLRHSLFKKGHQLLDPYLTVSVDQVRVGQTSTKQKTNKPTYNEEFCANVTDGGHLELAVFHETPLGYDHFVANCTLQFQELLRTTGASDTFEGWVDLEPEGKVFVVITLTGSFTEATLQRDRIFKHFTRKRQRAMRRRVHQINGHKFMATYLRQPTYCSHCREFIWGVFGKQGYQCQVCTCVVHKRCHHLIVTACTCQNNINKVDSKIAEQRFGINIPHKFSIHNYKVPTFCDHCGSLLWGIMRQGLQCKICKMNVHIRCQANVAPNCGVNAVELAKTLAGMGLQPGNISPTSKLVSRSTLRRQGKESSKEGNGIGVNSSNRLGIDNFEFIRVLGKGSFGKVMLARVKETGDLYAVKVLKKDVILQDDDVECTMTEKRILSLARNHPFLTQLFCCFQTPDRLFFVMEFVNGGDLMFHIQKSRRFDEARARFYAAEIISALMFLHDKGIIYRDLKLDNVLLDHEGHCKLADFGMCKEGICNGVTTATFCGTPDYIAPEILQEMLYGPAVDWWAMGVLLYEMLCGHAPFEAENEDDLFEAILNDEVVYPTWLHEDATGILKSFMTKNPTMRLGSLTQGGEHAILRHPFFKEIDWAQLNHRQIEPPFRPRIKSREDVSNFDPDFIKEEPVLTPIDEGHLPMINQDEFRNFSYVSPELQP
# PARTICULARS: at 1 µM
PARAMETER MEASURED: residual activity (%)
Answer with a number only, understood to be in %.

SMILES | PARAMETER MEASURED | UNITS TEXT | READOUT VALUE
CC#CC(=O)Nc1cc2c(Nc3ccc(F)c(Cl)c3)ncnc2cn1 | residual activity | % | 90

State the recorded residual activity for this entry: "CC(=O)c1ccc(N2CCOCC2)cc1O"
92

State the recorded residual activity for this entry: "c1ccc(-c2n[nH]c3c2oc2ccccc23)cc1"
91

###

# TARGET OR TEST SYSTEM: Serine/threonine-protein kinase PLK2 (Homo sapiens) (UniProt Q9NYY3);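 further: residual PLK2 kinase activity expressed as percent of uninhibited control, measured in MOPS buffer at pH 7.0 with EDTA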
# Sequence (Q9NYY3 whole entry, looked up): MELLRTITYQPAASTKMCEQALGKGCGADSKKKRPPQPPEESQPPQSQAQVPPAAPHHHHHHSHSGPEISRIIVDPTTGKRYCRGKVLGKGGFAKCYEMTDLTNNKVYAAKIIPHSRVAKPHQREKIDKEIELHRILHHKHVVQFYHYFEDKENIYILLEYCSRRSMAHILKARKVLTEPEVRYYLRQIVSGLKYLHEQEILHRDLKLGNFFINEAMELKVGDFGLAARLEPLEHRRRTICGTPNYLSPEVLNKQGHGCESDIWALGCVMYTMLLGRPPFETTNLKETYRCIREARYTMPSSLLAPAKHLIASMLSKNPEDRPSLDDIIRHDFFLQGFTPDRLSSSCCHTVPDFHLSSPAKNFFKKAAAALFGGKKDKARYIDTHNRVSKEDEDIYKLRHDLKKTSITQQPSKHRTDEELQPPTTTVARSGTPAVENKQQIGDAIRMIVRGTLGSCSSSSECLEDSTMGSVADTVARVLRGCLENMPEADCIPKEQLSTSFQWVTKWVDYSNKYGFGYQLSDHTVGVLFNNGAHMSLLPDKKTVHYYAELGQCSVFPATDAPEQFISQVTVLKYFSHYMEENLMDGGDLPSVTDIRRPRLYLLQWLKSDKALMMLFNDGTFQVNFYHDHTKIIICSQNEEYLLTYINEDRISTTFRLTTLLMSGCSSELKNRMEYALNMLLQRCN
# PARTICULARS: at 1 µM
# Description: Millipore: Percentage of residual kinase activity of PLK2 at 1uM relative to control. Control inhibitor: Phosphoric acid* at 0.3uM. Buffer: 8 mM MOPS pH 7.0, 0.2 mM EDTA
PARAMETER MEASURED: residual activity (%)
Answer with a number only, understood to be in %.

Use these answered entries as a reference point.
SMILES | TARGET OR TEST SYSTEM | residual activity / %
CO[C@H]1C[C@@H]2CC[C@@H](C)[C@@](O)(O2)C(=O)C(=O)N2CCCC[C@H]2C(=O)O[C@H]([C@H](C)C[C@@H]2CC[C@@H](O)[C@H](OC)C2)CC(=O)[C@H](C)/C=C(\C)[C@@H](O)[C@@H](OC)C(=O)[C@H](C)C[C@H](C)/C=C/C=C/C=C/1C | Serine/threonine-protein kinase PLK2 (Homo sapiens) (UniProt Q9NYY3) | 104
c1ccc(-c2n[nH]c3c2oc2ccccc23)cc1 | Serine/threonine-protein kinase PLK2 (Homo sapiens) (UniProt Q9NYY3) | 94
CCOc1cc2ncnc(Nc3cccc(Br)c3)c2cc1OCC | Serine/threonine-protein kinase PLK2 (Homo sapiens) (UniProt Q9NYY3) | 99
COc1ccc(CNc2nc(N(CCO)CCO)nc3c2ncn3C(C)C)cc1 | Serine/threonine-protein kinase PLK2 (Homo sapiens) (UniProt Q9NYY3) | 91
Cc1ccc(NC2=CC(=O)c3sc(C)nc3C2=O)cc1 | Serine/threonine-protein kinase PLK2 (Homo sapiens) (UniProt Q9NYY3) | 95

Given the entry "COc1cc2ncnc(Nc3ccc(Oc4ccccc4)cc3)c2cc1OC" , what residual activity was observed with Serine/threonine-protein kinase PLK2 (Homo sapiens) (UniProt Q9NYY3)?
104

Given the entry "O=C(Nc1cccc(Nc2cc(Nc3cccc(C(F)(F)F)c3)ncn2)c1)C1CC1" , what residual activity was observed with Serine/threonine-protein kinase PLK2 (Homo sapiens) (UniProt Q9NYY3)?
100

Given the entry "CC(=O)O/N=C1\C(=C2\C(=O)Nc3cc(Br)ccc32)Nc2ccccc21" , what residual activity was observed with Serine/threonine-protein kinase PLK2 (Homo sapiens) (UniProt Q9NYY3)?
104

Given the entry "c1ccc(-c2n[nH]cc2-c2ccnc3ccccc23)nc1" , what residual activity was observed with Serine/threonine-protein kinase PLK2 (Homo sapiens) (UniProt Q9NYY3)?
102

Given the entry "c1ccc2c(-c3ccncc3)c[nH]c2c1" , what residual activity was observed with Serine/threonine-protein kinase PLK2 (Homo sapiens) (UniProt Q9NYY3)?
107

Given the entry "O=C1c2ccccc2-[n+]2ccc3c([nH]c4ccccc43)c21" , what residual activity was observed with Serine/threonine-protein kinase PLK2 (Homo sapiens) (UniProt Q9NYY3)?
95

Given the entry "O=C1NC(=O)/C(=C/c2ccc3c(c2)OC(F)(F)O3)S1" , what residual activity was observed with Serine/threonine-protein kinase PLK2 (Homo sapiens) (UniProt Q9NYY3)?
112

Given the entry "Cc1nc2cc3nc(-c4cccs4)cnc3cc2n1C" , what residual activity was observed with Serine/threonine-protein kinase PLK2 (Homo sapiens) (UniProt Q9NYY3)?
102

Given the entry "CC(C)n1cnc2c(NCc3ccccc3)nc(NCCCO)nc21" , what residual activity was observed with Serine/threonine-protein kinase PLK2 (Homo sapiens) (UniProt Q9NYY3)?
94

Given the entry "Cc1cc2ncc(-c3ccccc3)nc2cc1C" , what residual activity was observed with Serine/threonine-protein kinase PLK2 (Homo sapiens) (UniProt Q9NYY3)?
101

Given the entry "N#Cc1cnc2cnc(NCc3cccnc3)cc2c1Nc1ccc(F)c(Cl)c1" , what residual activity was observed with Serine/threonine-protein kinase PLK2 (Homo sapiens) (UniProt Q9NYY3)?
101

Given the entry "CCN(CC)CCCCN1c2ccccc2Oc2ccc(Cl)cc21" , what residual activity was observed with Serine/threonine-protein kinase PLK2 (Homo sapiens) (UniProt Q9NYY3)?
109

###

# TARGET OR TEST SYSTEM: TGF-beta receptor type-1 (Homo sapiens)
# Sequence (whole entry): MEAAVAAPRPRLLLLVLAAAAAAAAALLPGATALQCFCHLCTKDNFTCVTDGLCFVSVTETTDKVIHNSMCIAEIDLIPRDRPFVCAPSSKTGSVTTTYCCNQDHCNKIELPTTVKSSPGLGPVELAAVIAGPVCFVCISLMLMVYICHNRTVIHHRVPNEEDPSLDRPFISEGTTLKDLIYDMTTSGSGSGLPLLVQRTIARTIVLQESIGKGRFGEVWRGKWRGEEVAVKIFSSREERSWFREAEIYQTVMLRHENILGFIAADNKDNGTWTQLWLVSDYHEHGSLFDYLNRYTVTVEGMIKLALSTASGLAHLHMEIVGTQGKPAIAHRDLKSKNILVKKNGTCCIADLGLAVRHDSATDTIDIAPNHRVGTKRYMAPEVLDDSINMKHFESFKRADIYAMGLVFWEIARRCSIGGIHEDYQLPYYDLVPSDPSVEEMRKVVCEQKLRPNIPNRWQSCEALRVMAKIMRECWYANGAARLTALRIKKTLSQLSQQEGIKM
# PARTICULARS: at 1 µM
# Description: Millipore: Percentage of residual kinase activity of TGFBR1 at 1uM relative to control. Control inhibitor: Phosphoric acid* at 0.3uM. Buffer: 8 mM MOPS pH 7.0, 0.2 mM EDTA, 1 mM MnCl2
Just a reminder that ties go to NO: only residual activity strictly below 90% counts as YES.

Answered examples (5):
SMILES | TARGET OR TEST SYSTEM | CLASSIFICATION
COc1cc2ncnc(Nc3ccc(Oc4ccccc4)cc3)c2cc1OC | TGF-beta receptor type-1 (Homo sapiens) | NO
CO[C@@H]1[C@H](N(C)C(=O)c2ccccc2)C[C@H]2O[C@]1(C)n1c3ccccc3c3c4c(c5c6ccccc6n2c5c31)C(=O)NC4 | TGF-beta receptor type-1 (Homo sapiens) | YES
Cc1cccc(-c2[nH]c(C(C)(C)C)nc2-c2ccc3c(c2)OCO3)n1 | TGF-beta receptor type-1 (Homo sapiens) | YES
O=c1c2ccccc2[nH]c(=S)n1CCN1CCC(=C(c2ccc(F)cc2)c2ccc(F)cc2)CC1 | TGF-beta receptor type-1 (Homo sapiens) | NO
O=C1c2ccccc2-[n+]2ccc3c([nH]c4ccccc43)c21 | TGF-beta receptor type-1 (Homo sapiens) | YES

Hi there! Is residual activity for "Cn1cnc2cc3c(Nc4cccc(Br)c4)ncnc3cc21" below 90%, do you know?
YES

Hi there! Is residual activity for "Cc1cncc2cccc(S(=O)(=O)N3CCCN(C(=O)CN)C[C@H]3C)c12" below 90%, do you know?
YES

Hi there! Is residual activity for "CC(=O)c1ccc(N2CCOCC2)cc1O" below 90%, do you know?
YES

###

# TARGET OR TEST SYSTEM: Serine/threonine-protein kinase PAK 6 (Homo sapiens) (UniProt Q9NQU5)
# Sequence (Q9NQU5 whole entry, looked up): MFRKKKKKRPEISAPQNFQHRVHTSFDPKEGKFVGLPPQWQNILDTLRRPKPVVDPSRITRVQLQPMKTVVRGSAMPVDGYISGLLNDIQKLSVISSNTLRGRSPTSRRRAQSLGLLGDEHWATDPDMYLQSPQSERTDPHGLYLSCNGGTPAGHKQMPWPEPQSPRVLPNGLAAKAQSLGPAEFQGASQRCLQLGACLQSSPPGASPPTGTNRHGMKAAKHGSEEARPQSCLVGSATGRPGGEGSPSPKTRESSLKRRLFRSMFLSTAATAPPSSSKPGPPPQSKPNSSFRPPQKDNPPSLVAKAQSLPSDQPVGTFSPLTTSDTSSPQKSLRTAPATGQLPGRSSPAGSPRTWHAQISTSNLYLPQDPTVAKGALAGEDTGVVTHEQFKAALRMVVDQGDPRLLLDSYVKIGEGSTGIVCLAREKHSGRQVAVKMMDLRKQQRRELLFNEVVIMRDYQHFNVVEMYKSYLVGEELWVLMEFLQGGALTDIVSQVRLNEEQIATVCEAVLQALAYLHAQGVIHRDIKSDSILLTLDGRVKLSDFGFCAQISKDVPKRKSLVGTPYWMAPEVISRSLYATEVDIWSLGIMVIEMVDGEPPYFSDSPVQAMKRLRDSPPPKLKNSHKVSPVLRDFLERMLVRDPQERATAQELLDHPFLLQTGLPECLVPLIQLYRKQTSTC
# PARTICULARS: at 10 µM
Returns one of Met or Not met; Met when residual activity is >= 80%.

Answered examples (4):
MOLECULE | TARGET OR TEST SYSTEM | CLASSIFICATION
COc1ccc(C(=O)Nc2sc3c(c2C(N)=O)CCCC3)cc1OC | Serine/threonine-protein kinase PAK 6 (Homo sapiens) (UniProt Q9NQU5) | Met
COc1cc2ncnc(Nc3ccc(O)c(Br)c3)c2cc1OC | Serine/threonine-protein kinase PAK 6 (Homo sapiens) (UniProt Q9NQU5) | Met
N#C/C(=C(\N)Sc1ccc(N)cc1)c1ccccc1C(F)(F)F | Serine/threonine-protein kinase PAK 6 (Homo sapiens) (UniProt Q9NQU5) | Met
CC(=O)c1ccc(N2CCOCC2)cc1O | Serine/threonine-protein kinase PAK 6 (Homo sapiens) (UniProt Q9NQU5) | Met

# check: residual activity of "NC(=O)c1ccc2[nH]c(-c3ccc(Oc4ccc(Cl)cc4)cc3)nc2c1" is greater than or equal to 80%
Met

# check: residual activity of "CC(=O)O/N=C1\C(=C2\C(=O)Nc3cc(Br)ccc32)Nc2ccccc21" is greater than or equal to 80%
Not met

# check: residual activity of "O=C(Nc1cccc(Nc2nccc(Nc3cccc(C(F)(F)F)c3)n2)c1)C1CC1" is greater than or equal to 80%
Not met

# check: residual activity of "O=Nc1c(-c2c(O)[nH]c3ccccc23)[nH]c2ccccc12" is greater than or equal to 80%
Not met

# check: residual activity of "CCOc1cc2ncnc(Nc3cccc(Br)c3)c2cc1OCC" is greater than or equal to 80%
Met

# check: residual activity of "COc1cc2ncnc(Nc3ccc(Oc4ccccc4)cc3)c2cc1OC" is greater than or equal to 80%
Met
